Ref: PubChem BioAssay (NCI)

test system: HCC-2998 colon; test: NCI-60 one-dose screen, 48 h (100 = growth as untreated, 0 = no growth, -100 = all killed); conditions: 10 µM unless noted
About 83,000 compounds went through this panel and 20% of them were active in at least one assay; those are over-represented in the sample as a whole.
REPORTED_ENDPOINT: growth (%)
Just the number please, in %, no unit attached.

# annotated cases, reported growth shown
CCCCCc1ccc(S(=O)(=O)Nc2cc(-c3csc(NC(=O)CN4CCN(CCO)CC4)n3)ccc2OC)cc1 : -23.4
CNC1CCc2c(sc(NC(=O)c3ccc(C(C)(C)C)cc3)c2C(N)=O)C1 (configuration not stated) : 28.6

With those in mind, consider the next compound.
Task: For the compound shown here, `COc1ccc(-n2c(SCc3nnc(NC(=O)c4ccc(Br)cc4)s3)nc3cc(OC)c(OC)cc3c2=O)cc1` , give the reported growth.
Output: 88.2
